Origin of the recorded values: the supplement of paper PMC7125110

B1: glmS ribozyme (parent)
chain: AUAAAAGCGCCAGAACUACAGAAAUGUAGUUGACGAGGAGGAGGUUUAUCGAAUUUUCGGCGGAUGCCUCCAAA

Variants of: B1
Experiment: self-cleavage kobs at 640 uM GlcN6P; higher = faster cleavage; RNA array
Conditions: with glucosamine-6-phosphate
Fewer inactive variants are shown than the library holds.
Recorded self-cleavage kobs at 640 uM GlcN6P values for a group of variants are listed next.

Variant Id: C11A G13U U31A G32A U47G
Measurement Unit: s⁻¹
Value Operator: <
self-cleavage kobs at 640 uM GlcN6P: 1e-05
//
Variant Id: A36G G41A C61G C71U
Measurement Unit: s⁻¹
Value Operator: <
self-cleavage kobs at 640 uM GlcN6P: 1e-05
//
Variant Id: G43A U49G C50G U57C
Measurement Unit: s⁻¹
Value Operator: <
self-cleavage kobs at 640 uM GlcN6P: 1e-05
//
Variant Id: C34A G43C
Measurement Unit: s⁻¹
Value Operator: <
self-cleavage kobs at 640 uM GlcN6P: 1e-05
//
Variant Id: A6G A48G C61G
Measurement Unit: s⁻¹
Value Operator: <
self-cleavage kobs at 640 uM GlcN6P: 1e-05
//
Variant Id: G7U G9A A14U C50G
Measurement Unit: s⁻¹
Value Operator: =
self-cleavage kobs at 640 uM GlcN6P: 0.000267
//
Variant Id: C8A G43C C61A
Measurement Unit: s⁻¹
Value Operator: <
self-cleavage kobs at 640 uM GlcN6P: 1e-05
//
Variant Id: U45A U47G
Measurement Unit: s⁻¹
Value Operator: =
self-cleavage kobs at 640 uM GlcN6P: 0.00261
//
Variant Id: C11U A53C
Measurement Unit: s⁻¹
Value Operator: =
self-cleavage kobs at 640 uM GlcN6P: 8.09e-05
//
Variant Id: G13C G37A C50U G59C
Measurement Unit: s⁻¹
Value Operator: <
self-cleavage kobs at 640 uM GlcN6P: 1e-05
//
Variant Id: C8A C10G
Measurement Unit: s⁻¹
Value Operator: <
self-cleavage kobs at 640 uM GlcN6P: 1e-05
//
Variant Id: C10A A14C A64U
Measurement Unit: s⁻¹
Value Operator: <
self-cleavage kobs at 640 uM GlcN6P: 1e-05
//
Variant Id: G32A C58U
Measurement Unit: s⁻¹
Value Operator: =
self-cleavage kobs at 640 uM GlcN6P: 3.37e-05
//
Variant Id: G43A U46C U54A U56A U69C
Measurement Unit: s⁻¹
Value Operator: <
self-cleavage kobs at 640 uM GlcN6P: 1e-05
//
Variant Id: G29U G37C A42C U46A
Measurement Unit: s⁻¹
Value Operator: <
self-cleavage kobs at 640 uM GlcN6P: 1e-05
//
Variant Id: G29A G44U U54A U57A C61U C68A
Measurement Unit: s⁻¹
Value Operator: <
self-cleavage kobs at 640 uM GlcN6P: 1e-05
//
Variant Id: A52G A53U
Measurement Unit: s⁻¹
Value Operator: =
self-cleavage kobs at 640 uM GlcN6P: 6.4e-05
//
Variant Id: U31A A52G U69G
Measurement Unit: s⁻¹
Value Operator: =
self-cleavage kobs at 640 uM GlcN6P: 7.54e-05
//
Variant Id: G29C U46G
Measurement Unit: s⁻¹
Value Operator: =
self-cleavage kobs at 640 uM GlcN6P: 7.38e-05
//
Variant Id: U30A G43C
Measurement Unit: s⁻¹
Value Operator: <
self-cleavage kobs at 640 uM GlcN6P: 1e-05
//
Variant Id: C34U U55C C67U
Measurement Unit: s⁻¹
Value Operator: <
self-cleavage kobs at 640 uM GlcN6P: 1e-05
//
Variant Id: C11A G38U U47A
Measurement Unit: s⁻¹
Value Operator: <
self-cleavage kobs at 640 uM GlcN6P: 1e-05
//
Variant Id: G13A C67A
Measurement Unit: s⁻¹
Value Operator: =
self-cleavage kobs at 640 uM GlcN6P: 2.62e-05
//
Variant Id: U2A G29U
Measurement Unit: s⁻¹
Value Operator: =
self-cleavage kobs at 640 uM GlcN6P: 0.00137
//
Variant Id: G37U A39U G40U A48U C50G C67A
Measurement Unit: s⁻¹
Value Operator: <
self-cleavage kobs at 640 uM GlcN6P: 1e-05
//
Variant Id: U56G C70U
Measurement Unit: s⁻¹
Value Operator: =
self-cleavage kobs at 640 uM GlcN6P: 0.000908
//
Variant Id: C10A U46C U54G
Measurement Unit: s⁻¹
Value Operator: <
self-cleavage kobs at 640 uM GlcN6P: 1e-05
//
Variant Id: G7U U49G
Measurement Unit: s⁻¹
Value Operator: <
self-cleavage kobs at 640 uM GlcN6P: 1e-05
//
Variant Id: G29C U46G U47A C70G
Measurement Unit: s⁻¹
Value Operator: =
self-cleavage kobs at 640 uM GlcN6P: 0.00011
//
Variant Id: A6C C8G G66C
Measurement Unit: s⁻¹
Value Operator: <
self-cleavage kobs at 640 uM GlcN6P: 1e-05
//
Variant Id: G38A A39U U55G U69G
Measurement Unit: s⁻¹
Value Operator: <
self-cleavage kobs at 640 uM GlcN6P: 1e-05
//
Variant Id: G9C A15C A53U
Measurement Unit: s⁻¹
Value Operator: <
self-cleavage kobs at 640 uM GlcN6P: 1e-05
//
Variant Id: G9A A42G A52G
Measurement Unit: s⁻¹
Value Operator: <
self-cleavage kobs at 640 uM GlcN6P: 1e-05
//
Variant Id: U47C A52U
Measurement Unit: s⁻¹
Value Operator: =
self-cleavage kobs at 640 uM GlcN6P: 3.84e-05
//
Variant Id: U30G G60U
Measurement Unit: s⁻¹
Value Operator: <
self-cleavage kobs at 640 uM GlcN6P: 1e-05
//
Variant Id: A18C
Measurement Unit: s⁻¹
Value Operator: =
self-cleavage kobs at 640 uM GlcN6P: 0.0169
//
Variant Id: A15U U45A
Measurement Unit: s⁻¹
Value Operator: =
self-cleavage kobs at 640 uM GlcN6P: 0.00219
//
Variant Id: G44U U55A
Measurement Unit: s⁻¹
Value Operator: =
self-cleavage kobs at 640 uM GlcN6P: 0.000157
//
Variant Id: G40A G43U
Measurement Unit: s⁻¹
Value Operator: <
self-cleavage kobs at 640 uM GlcN6P: 1e-05
//
Variant Id: G7A U46G
Measurement Unit: s⁻¹
Value Operator: <
self-cleavage kobs at 640 uM GlcN6P: 1e-05
//
Variant Id: U47C A52C
Measurement Unit: s⁻¹
Value Operator: <
self-cleavage kobs at 640 uM GlcN6P: 1e-05
//
Variant Id: A33C G66C C68G C70A
Measurement Unit: s⁻¹
Value Operator: <
self-cleavage kobs at 640 uM GlcN6P: 1e-05
//
Variant Id: A12C A23C U54G C70A
Measurement Unit: s⁻¹
Value Operator: =
self-cleavage kobs at 640 uM GlcN6P: 0.000146
//
Variant Id: A42G C70G
Measurement Unit: s⁻¹
Value Operator: =
self-cleavage kobs at 640 uM GlcN6P: 0.000216
//
Variant Id: G43A U49C G66A C70G
Measurement Unit: s⁻¹
Value Operator: <
self-cleavage kobs at 640 uM GlcN6P: 1e-05
//
Variant Id: A14U U46C
Measurement Unit: s⁻¹
Value Operator: =
self-cleavage kobs at 640 uM GlcN6P: 0.000126
//
Variant Id: U31C A53U
Measurement Unit: s⁻¹
Value Operator: =
self-cleavage kobs at 640 uM GlcN6P: 0.000925
//
Variant Id: A15U C16U
Measurement Unit: s⁻¹
Value Operator: =
self-cleavage kobs at 640 uM GlcN6P: 0.000423
//
Variant Id: A12U U56A U65G
Measurement Unit: s⁻¹
Value Operator: =
self-cleavage kobs at 640 uM GlcN6P: 0.000445
//
Variant Id: C34U C61A C67U
Measurement Unit: s⁻¹
Value Operator: =
self-cleavage kobs at 640 uM GlcN6P: 0.000388
//
Variant Id: C34A A53U C70U
Measurement Unit: s⁻¹
Value Operator: <
self-cleavage kobs at 640 uM GlcN6P: 1e-05
//
Variant Id: A14C U55C
Measurement Unit: s⁻¹
Value Operator: =
self-cleavage kobs at 640 uM GlcN6P: 0.00122
//
Variant Id: U55C C58A C70U
Measurement Unit: s⁻¹
Value Operator: =
self-cleavage kobs at 640 uM GlcN6P: 4.34e-05
//
Variant Id: A14G C58G
Measurement Unit: s⁻¹
Value Operator: =
self-cleavage kobs at 640 uM GlcN6P: 7.22e-05
//
Variant Id: A14G U57G
Measurement Unit: s⁻¹
Value Operator: =
self-cleavage kobs at 640 uM GlcN6P: 3.71e-05
//
Variant Id: U31C U56G
Measurement Unit: s⁻¹
Value Operator: =
self-cleavage kobs at 640 uM GlcN6P: 0.000899
//
Variant Id: A12G G43C G51U G63A U65C C68A
Measurement Unit: s⁻¹
Value Operator: <
self-cleavage kobs at 640 uM GlcN6P: 1e-05
//
Variant Id: U30C
Measurement Unit: s⁻¹
Value Operator: =
self-cleavage kobs at 640 uM GlcN6P: 0.000113
//
Variant Id: G37U G62U
Measurement Unit: s⁻¹
Value Operator: <
self-cleavage kobs at 640 uM GlcN6P: 1e-05
//
Variant Id: A64U C67U C71U
Measurement Unit: s⁻¹
Value Operator: <
self-cleavage kobs at 640 uM GlcN6P: 1e-05
//
Variant Id: U31C C67G
Measurement Unit: s⁻¹
Value Operator: =
self-cleavage kobs at 640 uM GlcN6P: 2.33e-05
//
Variant Id: C8U G44U
Measurement Unit: s⁻¹
Value Operator: <
self-cleavage kobs at 640 uM GlcN6P: 1e-05
//
Variant Id: C8G A39C
Measurement Unit: s⁻¹
Value Operator: <
self-cleavage kobs at 640 uM GlcN6P: 1e-05
//
Variant Id: C34G G35C G60C C68G
Measurement Unit: s⁻¹
Value Operator: =
self-cleavage kobs at 640 uM GlcN6P: 6.81e-05
//
Variant Id: A12G U30C
Measurement Unit: s⁻¹
Value Operator: =
self-cleavage kobs at 640 uM GlcN6P: 2.84e-05
//
Variant Id: G13U A39C
Measurement Unit: s⁻¹
Value Operator: =
self-cleavage kobs at 640 uM GlcN6P: 2.78e-05
//
Variant Id: G9A G43U
Measurement Unit: s⁻¹
Value Operator: <
self-cleavage kobs at 640 uM GlcN6P: 1e-05
//
Variant Id: A33U G41U G60C
Measurement Unit: s⁻¹
Value Operator: <
self-cleavage kobs at 640 uM GlcN6P: 1e-05
//
Variant Id: C8A A15G G44A C61U C71A
Measurement Unit: s⁻¹
Value Operator: <
self-cleavage kobs at 640 uM GlcN6P: 1e-05
//
Variant Id: U45G U54C C61U
Measurement Unit: s⁻¹
Value Operator: <
self-cleavage kobs at 640 uM GlcN6P: 1e-05
//
Variant Id: U46C G59C
Measurement Unit: s⁻¹
Value Operator: <
self-cleavage kobs at 640 uM GlcN6P: 1e-05
//
Variant Id: G51C A53C
Measurement Unit: s⁻¹
Value Operator: <
self-cleavage kobs at 640 uM GlcN6P: 1e-05
//
Variant Id: G41C U47A
Measurement Unit: s⁻¹
Value Operator: =
self-cleavage kobs at 640 uM GlcN6P: 4.21e-05
//
Variant Id: U65C G66C
Measurement Unit: s⁻¹
Value Operator: <
self-cleavage kobs at 640 uM GlcN6P: 1e-05
//
Variant Id: C11U G13A G44U
Measurement Unit: s⁻¹
Value Operator: <
self-cleavage kobs at 640 uM GlcN6P: 1e-05
//
Variant Id: C10U A12G G43U
Measurement Unit: s⁻¹
Value Operator: <
self-cleavage kobs at 640 uM GlcN6P: 1e-05
//
Variant Id: A36U A42C U47A
Measurement Unit: s⁻¹
Value Operator: <
self-cleavage kobs at 640 uM GlcN6P: 1e-05
//
Variant Id: C16U C67G
Measurement Unit: s⁻¹
Value Operator: =
self-cleavage kobs at 640 uM GlcN6P: 0.000229
//
Variant Id: U30A U55C
Measurement Unit: s⁻¹
Value Operator: =
self-cleavage kobs at 640 uM GlcN6P: 0.00129
//
Variant Id: C8U A15U U46G G51A G66A
Measurement Unit: s⁻¹
Value Operator: <
self-cleavage kobs at 640 uM GlcN6P: 1e-05
//
Variant Id: C34U A52G U54G
Measurement Unit: s⁻¹
Value Operator: <
self-cleavage kobs at 640 uM GlcN6P: 1e-05
//
Variant Id: C8U G35U A39U G43U
Measurement Unit: s⁻¹
Value Operator: <
self-cleavage kobs at 640 uM GlcN6P: 1e-05
//
Variant Id: C16U G37A U54C
Measurement Unit: s⁻¹
Value Operator: =
self-cleavage kobs at 640 uM GlcN6P: 0.000373
//
Variant Id: C16G A36C G51A G59C C61G
Measurement Unit: s⁻¹
Value Operator: <
self-cleavage kobs at 640 uM GlcN6P: 1e-05
//
Variant Id: C10U A14U C16U C68G
Measurement Unit: s⁻¹
Value Operator: =
self-cleavage kobs at 640 uM GlcN6P: 0.00169
//
Variant Id: A6G A14C C16G G40C
Measurement Unit: s⁻¹
Value Operator: <
self-cleavage kobs at 640 uM GlcN6P: 1e-05
//
Variant Id: C8U U47C
Measurement Unit: s⁻¹
Value Operator: <
self-cleavage kobs at 640 uM GlcN6P: 1e-05
//
Variant Id: U47A A64C
Measurement Unit: s⁻¹
Value Operator: =
self-cleavage kobs at 640 uM GlcN6P: 6.51e-05
//
Variant Id: G9C U56C C67U C71G
Measurement Unit: s⁻¹
Value Operator: <
self-cleavage kobs at 640 uM GlcN6P: 1e-05
//
Variant Id: U30C A53U
Measurement Unit: s⁻¹
Value Operator: =
self-cleavage kobs at 640 uM GlcN6P: 5.5e-05
//
Variant Id: C34A C67A
Measurement Unit: s⁻¹
Value Operator: <
self-cleavage kobs at 640 uM GlcN6P: 1e-05
